Target: Prostaglandin E2 receptor EP2 subtype (Homo sapiens)
Assay: EP2 receptor modulators, dose response, cell-based, human EP2, PGE2 EC50 shift (AID 1421)
Conditions: EP2-expressing cells, PGE2 EC50 shift by compound; measured here: PGE2 EC50 at 6.7 uM compound

compound: Cc1ccc(N(CC(=O)N/N=C/c2ccc(OC3CSC3)cc2)S(=O)(=O)c2ccccc2)cc1
PGE2 EC50 with compound: 1.01 nM

compound: CC1CCN(c2ccccc2NC(=O)c2ccc(F)cc2)CC1
PGE2 EC50 with compound: 0.69 nM

compound: COc1cc2c(cc1OC)-c1cc(N3CCCc4ccccc43)nc(=O)n1CC2
PGE2 EC50 with compound: 1.98 nM

compound: Cc1cc2cc(CN(Cc3nnnn3C3CCCCC3)CC3CCCO3)c(=O)[nH]c2cc1C (stereo not given)
PGE2 EC50 with compound: 0.97 nM

compound: Cc1cccc(Oc2nc(-c3ccccc3)cc(C)c2S(C)(=O)=O)c1C
PGE2 EC50 with compound: 2.56 nM
